- measured-on: T1, CXCR4, P61073
- T1 chain: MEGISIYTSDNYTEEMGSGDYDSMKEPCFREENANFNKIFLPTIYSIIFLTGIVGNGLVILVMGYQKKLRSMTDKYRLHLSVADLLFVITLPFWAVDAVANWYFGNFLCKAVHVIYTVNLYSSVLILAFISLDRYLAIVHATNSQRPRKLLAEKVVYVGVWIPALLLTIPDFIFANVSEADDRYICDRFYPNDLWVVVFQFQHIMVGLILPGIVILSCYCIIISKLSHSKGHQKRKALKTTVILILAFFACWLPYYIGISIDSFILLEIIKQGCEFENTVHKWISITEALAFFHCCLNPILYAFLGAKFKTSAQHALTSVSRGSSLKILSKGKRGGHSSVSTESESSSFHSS
- protocol-text: method not described; given as 'affinity constant'
pKd: −log10 of the molar value. Square brackets hold non-standard residues; d marks the D form. Ends that are not written are not given here.

| binder | pKd |
| --- | --- |
| [dV][dA][dE][dK][dP][dC][dK][dS][dS][dT][dI][dR][dR][dY][dS] [LRD peptide 2(1-15)[MCP-1]] | > 7.00 |
